Recorded values, source ChEMBL document CHEMBL3425450.

target_system: GABA-A receptor; anion channel
assay_summary: Displacement of [3H]TBPS from GABAA receptor in Sprague-Dawley rat brain cortical membrane after 90 mins by liquid scintillation spectrometry
measured_metric: IC50 (nM)

>>> recorded_measurement("C[C@@]1(O)CC[C@H]2[C@@H](CC[C@@H]3[C@@H]2CC[C@]2(C)[C@@H](C(=O)Cn4cccn4)CC[C@@H]32)C1")
149
>>> recorded_measurement("C[C@@]1(O)CC[C@H]2[C@@H](CC[C@@H]3[C@@H]2CC[C@]2(C)[C@@H](C(=O)Cn4ncnn4)CC[C@@H]32)C1")
31
>>> recorded_measurement("CC(=O)[C@H]1CC[C@H]2[C@@H]3CC[C@H]4C[C@](C)(O)CC[C@]4(C)[C@H]3CC[C@]12C")
42
>>> recorded_measurement("C[C@@]1(O)CC[C@H]2[C@H](CC[C@@H]3[C@@H]2CC[C@]2(C)[C@@H](C(=O)Cn4cc5ccccc5n4)CC[C@@H]32)C1")
11
>>> recorded_measurement("C[C@@]1(O)CC[C@H]2[C@H](CC[C@@H]3[C@@H]2CC[C@]2(C)[C@@H](C(=O)Cn4ncc5ccncc54)CC[C@@H]32)C1")
17
>>> recorded_measurement("C[C@@]1(O)CC[C@H]2[C@H](CC[C@@H]3[C@@H]2CC[C@]2(C)[C@@H](C(=O)Cn4cncn4)CC[C@@H]32)C1")
140
>>> recorded_measurement("C[C@@]1(O)CC[C@H]2[C@@H](CC[C@@H]3[C@@H]2CC[C@]2(C)[C@@H](C(=O)CN4CCCC4)CC[C@@H]32)C1")
2890
>>> recorded_measurement("C[C@@]1(O)CC[C@H]2[C@H](CC[C@@H]3[C@@H]2CC[C@]2(C)[C@@H](C(=O)Cn4ncc5cnccc54)CC[C@@H]32)C1")
33
>>> recorded_measurement("C[C@@]1(O)CC[C@H]2[C@H](CC[C@@H]3[C@@H]2CC[C@]2(C)[C@@H](C(=O)Cn4cc5cnccc5n4)CC[C@@H]32)C1")
24
>>> recorded_measurement("C[C@@]1(O)CC[C@H]2[C@H](CC[C@@H]3[C@@H]2CC[C@]2(C)[C@@H](C(=O)CN4CCCC4)CC[C@@H]32)C1")
1290
>>> recorded_measurement("C[C@@]1(O)CC[C@H]2[C@H](CC[C@@H]3[C@@H]2CC[C@]2(C)[C@@H](C(=O)Cn4ncc5ccccc54)CC[C@@H]32)C1")
15
>>> recorded_measurement("C[C@@]1(O)CC[C@H]2[C@H](CC[C@@H]3[C@@H]2CC[C@]2(C)[C@@H](C(=O)Cn4ncnn4)CC[C@@H]32)C1")
6
>>> recorded_measurement("C[C@@]1(O)CC[C@H]2[C@H](CC[C@@H]3[C@@H]2CC[C@]2(C)[C@@H](C(=O)Cn4nccn4)CC[C@@H]32)C1")
11
>>> recorded_measurement("CC(=O)[C@H]1CC[C@H]2[C@@H]3CC[C@H]4C[C@H](O)CC[C@]4(C)[C@H]3CC[C@]12C")
22
>>> recorded_measurement("C[C@@]1(O)CC[C@H]2[C@H](CC[C@@H]3[C@@H]2CC[C@]2(C)[C@@H](C(=O)Cn4cnnn4)CC[C@@H]32)C1")
69
>>> recorded_measurement("CC(=O)[C@H]1CC[C@H]2[C@@H]3CC[C@H]4C[C@](C)(O)CC[C@@H]4[C@H]3CC[C@]12C")
74

* * *

assay_summary: Oral bioavailability in Sprague-Dawley rat at 20 mg/kg by LC-MS/MS analysis
Assay type: ADME, organism-based
assay_conditions: in vivo
Returns one of satisfied or not satisfied; satisfied when bioavailability is >= 30%.

>>> class_label("C[C@@]1(O)CC[C@H]2[C@H](CC[C@@H]3[C@@H]2CC[C@]2(C)[C@@H](C(=O)Cn4ncnn4)CC[C@@H]32)C1")
"satisfied"
>>> class_label("CC(=O)[C@H]1CC[C@H]2[C@@H]3CC[C@H]4C[C@](C)(O)CC[C@]4(C)[C@H]3CC[C@]12C")
"not satisfied"
>>> class_label("CC(=O)[C@H]1CC[C@H]2[C@@H]3CC[C@H]4C[C@H](O)CC[C@]4(C)[C@H]3CC[C@]12C")
"not satisfied"
>>> class_label("C[C@@]1(O)CC[C@H]2[C@H](CC[C@@H]3[C@@H]2CC[C@]2(C)[C@@H](C(=O)Cn4cc5ccncc5n4)CC[C@@H]32)C1")
"satisfied"
>>> class_label("C[C@@]1(O)CC[C@H]2[C@H](CC[C@@H]3[C@@H]2CC[C@]2(C)[C@@H](C(=O)Cn4nccn4)CC[C@@H]32)C1")
"not satisfied"
>>> class_label("C[C@@]1(O)CC[C@H]2[C@H](CC[C@@H]3[C@@H]2CC[C@]2(C)[C@@H](C(=O)Cn4cc5ncccc5n4)CC[C@@H]32)C1")
"not satisfied"
>>> class_label("C[C@@]1(O)CC[C@H]2[C@@H](CC[C@@H]3[C@@H]2CC[C@]2(C)[C@@H](C(=O)Cn4ncnn4)CC[C@@H]32)C1")
"satisfied"

* * *

assay_summary: Clearance in Sprague-Dawley rat at 5 mg/kg, iv and 20 mg/kg, po by LC-MS/MS analysis
Format: ADME, organism-based
assay_conditions: in vivo
The reader will find reported clearance values listed item by item below.
measured_metric: clearance (mL/min/kg)

>>> recorded_measurement("C[C@@]1(O)CC[C@H]2[C@@H](CC[C@@H]3[C@@H]2CC[C@]2(C)[C@@H](C(=O)Cn4ncnn4)CC[C@@H]32)C1")
8.33
>>> recorded_measurement("CC(=O)[C@H]1CC[C@H]2[C@@H]3CC[C@H]4C[C@](C)(O)CC[C@]4(C)[C@H]3CC[C@]12C")
51.7
>>> recorded_measurement("C[C@@]1(O)CC[C@H]2[C@H](CC[C@@H]3[C@@H]2CC[C@]2(C)[C@@H](C(=O)Cn4nccn4)CC[C@@H]32)C1")
38.3
>>> recorded_measurement("CC(=O)[C@H]1CC[C@H]2[C@@H]3CC[C@H]4C[C@H](O)CC[C@]4(C)[C@H]3CC[C@]12C")
80

* * *

target_system: GABA-A receptor; anion channel
assay_summary: Displacement of [3H]TBPS from GABAA receptor in Sprague-Dawley rat brain cortical membrane after 90 mins by liquid scintillation spectrometry
pIC50: −log10 of the molar value.
The reader will find reported pIC50 values listed item by item below.
measured_metric: pIC50

>>> recorded_measurement("C[C@@]1(O)CC[C@H]2[C@H](CC[C@@H]3[C@@H]2CC[C@]2(C)[C@@H](C(=O)Cn4ccnn4)CC[C@@H]32)C1")
7.57
>>> recorded_measurement("C[C@@]1(O)CC[C@H]2[C@@H](CC[C@@H]3[C@@H]2CC[C@]2(C)[C@@H](C(=O)Cn4cnnn4)CC[C@@H]32)C1")
6.67
>>> recorded_measurement("C[C@@]1(O)CC[C@H]2[C@H](CC[C@@H]3[C@@H]2CC[C@]2(C)[C@@H](C(=O)Cn4cc5cccnc5n4)CC[C@@H]32)C1")
7.38
>>> recorded_measurement("C[C@@]1(O)CC[C@H]2[C@@H](CC[C@@H]3[C@@H]2CC[C@]2(C)[C@@H](C(=O)Cn4nccn4)CC[C@@H]32)C1")
7.27
>>> recorded_measurement("C[C@@]1(O)CC[C@H]2[C@@H](CC[C@@H]3[C@@H]2CC[C@]2(C)[C@@H](C(=O)Cn4ccnc4)CC[C@@H]32)C1")
6.97
>>> recorded_measurement("C[C@@]1(O)CC[C@H]2[C@H](CC[C@@H]3[C@@H]2CC[C@]2(C)[C@@H](C(=O)Cn4cccn4)CC[C@@H]32)C1")
7.49

* * *

assay_summary: Clearance in rat liver microsomes at 10 uM after 60 mins by HPLC-MS/MS analysis
Assay type: ADME
The reader will find reported CLhep predicted at 10 µM values listed item by item below.
measured_metric: CLhep predicted at 10 µM (mL/min/kg)

>>> recorded_measurement("CC(=O)[C@H]1CC[C@H]2[C@@H]3CC[C@H]4C[C@](C)(O)CC[C@@H]4[C@H]3CC[C@]12C")
52.8
>>> recorded_measurement("CC(=O)[C@H]1CC[C@H]2[C@@H]3CC[C@H]4C[C@H](O)CC[C@]4(C)[C@H]3CC[C@]12C")
55.7
>>> recorded_measurement("C[C@@]1(O)CC[C@H]2[C@@H](CC[C@@H]3[C@@H]2CC[C@]2(C)[C@@H](C(=O)Cn4ncnn4)CC[C@@H]32)C1")
14.3
>>> recorded_measurement("C[C@@]1(O)CC[C@H]2[C@H](CC[C@@H]3[C@@H]2CC[C@]2(C)[C@@H](C(=O)Cn4cc5ccncc5n4)CC[C@@H]32)C1")
55.7
>>> recorded_measurement("C[C@@]1(O)CC[C@H]2[C@H](CC[C@@H]3[C@@H]2CC[C@]2(C)[C@@H](C(=O)Cn4cc5c(n4)CCCC5)CC[C@@H]32)C1")
55.7
>>> recorded_measurement("C[C@@]1(O)CC[C@H]2[C@H](CC[C@@H]3[C@@H]2CC[C@]2(C)[C@@H](C(=O)Cn4cc5ncccc5n4)CC[C@@H]32)C1")
55.7
>>> recorded_measurement("CC(=O)[C@H]1CC[C@H]2[C@@H]3CC[C@H]4C[C@](C)(O)CC[C@]4(C)[C@H]3CC[C@]12C")
55.7
>>> recorded_measurement("C[C@@]1(O)CC[C@H]2[C@H](CC[C@@H]3[C@@H]2CC[C@]2(C)[C@@H](C(=O)Cn4ncnn4)CC[C@@H]32)C1")
39.3
>>> recorded_measurement("C[C@@]1(O)CC[C@H]2[C@H](CC[C@@H]3[C@@H]2CC[C@]2(C)[C@@H](C(=O)Cn4nccn4)CC[C@@H]32)C1")
45
